# ASSAY TARGET: HLA-B*35:01
# ASSAY TEXT: IEDB peptide-MHC binding, purified MHC/direct/fluorescence; filed as Kd, often an IC50 or EC50 that approximates it; bounds were set here for any values at or beyond the usual limits of such assays
# REPORTED CONDITIONS: source organism: Influenza A virus(A/swine/Shandong/fZC/2003(H9N2))
OBSERVED PROPERTY: pKd
// field semantics: pKd = negative decimal log of concentration (mol/L)

Look up and state reported pKd for FVRTLFQQM
6.53

###

# ASSAY TARGET: HLA-A*32:01
# ASSAY TEXT: IEDB peptide-MHC binding, purified MHC/competitive/radioactivity; filed as Kd, often an IC50 or EC50 that approximates it; bounds were set here for any values at or beyond the usual limits of such assays
# REPORTED CONDITIONS: source organism: Dengue virus 2 Jamaica/1409/1983
OBSERVED PROPERTY: Kd

Look up and state reported Kd for SQSTIPETI
≥ 24100 nM

Further cases:
Look up and state reported Kd for KLFMALVAF
37.8 nM

Look up and state reported Kd for NYADRRWCFD
≥ 52300 nM

###

# ASSAY TARGET: HLA-B*07:02
# ASSAY TEXT: IEDB peptide-MHC binding, purified MHC/competitive/radioactivity; filed as Kd, often an IC50 or EC50 that approximates it; bounds were set here for any values at or beyond the usual limits of such assays
# REPORTED CONDITIONS: source organism: Mammarenavirus guanaritoense
OBSERVED PROPERTY: Kd (µM)
Give the value in µM but do not write µM after it.

Look up and state reported Kd for LPIFSEFVL
0.217

###

# ASSAY TARGET: HLA-B*48:01
# ASSAY TEXT: IEDB peptide-MHC binding, purified MHC/direct/fluorescence; filed as Kd, often an IC50 or EC50 that approximates it; bounds were set here for any values at or beyond the usual limits of such assays
# REPORTED CONDITIONS: source organism: Burkholderia mallei
OBSERVED PROPERTY: Kd

Look up and state reported Kd for FEIGNGDAG
≥ 20 µM

###

# ASSAY TARGET: HLA-B*57:01
# ASSAY TEXT: IEDB peptide-MHC binding, purified MHC/competitive/fluorescence; filed as Kd, often an IC50 or EC50 that approximates it; bounds were set here for any values at or beyond the usual limits of such assays
# REPORTED CONDITIONS: source organism: Escherichia coli E110019
pKd: −log10 of the molar value.
OBSERVED PROPERTY: pKd

Look up and state reported pKd for RAFWGQVQK
≤ 4.70

###

# ASSAY TARGET: HLA-A*23:01
# ASSAY TEXT: IEDB peptide-MHC binding, purified MHC/competitive/radioactivity; filed as Kd, often an IC50 or EC50 that approximates it; bounds were set here for any values at or beyond the usual limits of such assays
# REPORTED CONDITIONS: source organism: Mammarenavirus machupoense
OBSERVED PROPERTY: Kd (µM)
Give the value in µM but do not write µM after it.

Look up and state reported Kd for RFKTKGRYNL
0.0875

###

# ASSAY TARGET: HLA-A*33:01
# ASSAY TEXT: IEDB peptide-MHC binding, purified MHC/competitive/radioactivity; filed as Kd, often an IC50 or EC50 that approximates it; bounds were set here for any values at or beyond the usual limits of such assays
# REPORTED CONDITIONS: source organism: Vaccinia virus WR
Classification field. Basis: Kd. Definitions: class 1 = under 90 nM, class 2 = from 90 nM up to 900 nM, class 3 = 900 nM and over

Observe how each entry below is paired with its result.
Which bin, given its Kd, does STSAADIKR occupy?
class 3

Which bin, given its Kd, does EMVDELVTR occupy?
class 2

Which bin, given its Kd, does HLTKTDKKY occupy?
class 3

Which bin, given its Kd, does TVKMGAFMY occupy?
class 3

Which bin, given its Kd, does DTSASEIKDR occupy?
class 2

Which bin, given its Kd, does DFWRLYNSLK occupy?
class 1

Which bin, given its Kd, does LSCAVHLIIY occupy?
class 3

Which bin, given its Kd, does MTLVPVLEKK occupy?
class 2

Which bin, given its Kd, does VILFIMFMLI occupy?
class 2

Which bin, given its Kd, does DTSYYVKEY occupy?
class 3

Further cases:
Which bin, given its Kd, does ALDGTFQRK occupy?
class 3

Which bin, given its Kd, does LVTRKCPQKK occupy?
class 3

Which bin, given its Kd, does GINNVQSLIK occupy?
class 3

Which bin, given its Kd, does LLKILDNLR occupy?
class 1

###

# ASSAY TARGET: HLA-B*15:17
# ASSAY TEXT: IEDB peptide-MHC binding, purified MHC/direct/fluorescence; filed as Kd, often an IC50 or EC50 that approximates it; bounds were set here for any values at or beyond the usual limits of such assays
# REPORTED CONDITIONS: source organism: Yersinia pestis
OBSERVED PROPERTY: Kd (nM)
Give the value in nM but do not write nM after it.

Look up and state reported Kd for TSDGFINGW
251

###

# key: entry, value: pKd
# ASSAY TARGET: HLA-A*02:06
# ASSAY TEXT: IEDB peptide-MHC binding, purified MHC/competitive/radioactivity; filed as Kd, often an IC50 or EC50 that approximates it; bounds were set here for any values at or beyond the usual limits of such assays
# REPORTED CONDITIONS: source organism: Trypanosoma cruzi
// field semantics: pKd = negative decimal log of concentration (mol/L)

Find the measured pKd of FVNHRFTLV with HLA-A*02:06 as test system.
8.18

Switching to the query record.
Find the measured pKd of GLLPSLLLLG with HLA-A*02:06 as test system.
6.90

###

# ASSAY TARGET: HLA-A*01:01
# ASSAY TEXT: IEDB peptide-MHC binding, purified MHC/direct/fluorescence; filed as Kd, often an IC50 or EC50 that approximates it; bounds were set here for any values at or beyond the usual limits of such assays
# REPORTED CONDITIONS: source organism: Bacillus licheniformis
pKd: −log10 of the molar value.
OBSERVED PROPERTY: pKd

Look up and state reported pKd for VQIPEKKCF
≤ 4.70

###

# ASSAY TARGET: HLA-A*03:01
# ASSAY TEXT: IEDB peptide-MHC binding, purified MHC/direct/fluorescence; filed as Kd, often an IC50 or EC50 that approximates it; bounds were set here for any values at or beyond the usual limits of such assays
# REPORTED CONDITIONS: source organism: Burkholderia mallei
OBSERVED PROPERTY: Kd

Look up and state reported Kd for FEIGNGDAG
≥ 20 µM

###

# ASSAY TARGET: HLA-B*35:01
# ASSAY TEXT: IEDB peptide-MHC binding, purified MHC/competitive/radioactivity; filed as Kd, often an IC50 or EC50 that approximates it; bounds were set here for any values at or beyond the usual limits of such assays
# REPORTED CONDITIONS: source organism: Mammarenavirus machupoense
OBSERVED PROPERTY: Kd (nM)
Give the value in nM but do not write nM after it.

Find the measured Kd of MPALTIACM with HLA-B*35:01 as test system.
5.23

###

# ASSAY TARGET: HLA-B*57:01
# ASSAY TEXT: IEDB peptide-MHC binding, purified MHC/competitive/fluorescence; filed as Kd, often an IC50 or EC50 that approximates it; bounds were set here for any values at or beyond the usual limits of such assays
# REPORTED CONDITIONS: source organism: Orthohantavirus sinnombreense
pKd: −log10 of the molar value.
OBSERVED PROPERTY: pKd

Look up and state reported pKd for LFPELECFF
≤ 4.70

###

# key: entry, value: pIC50
# ASSAY TARGET: HLA-A*24:02
# ASSAY TEXT: IEDB peptide-MHC binding, purified MHC/competitive/fluorescence; bounds were set here for any values at or beyond the usual limits of such assays
# REPORTED CONDITIONS: source organism: Vaccinia virus
pIC50: −log10 of the molar value.

A selection of reference data follows.
Find the measured pIC50 of KYYIKNIGN with HLA-A*24:02 as test system.
≤ 3.99

Find the measured pIC50 of YFNVLDEKY with HLA-A*24:02 as test system.
4.48

Further cases:
Find the measured pIC50 of GGKVFAPKQ with HLA-A*24:02 as test system.
≤ 2.65

###

# ASSAY TARGET: HLA-B*44:02
# ASSAY TEXT: IEDB peptide-MHC binding, purified MHC/direct/fluorescence; filed as Kd, often an IC50 or EC50 that approximates it; bounds were set here for any values at or beyond the usual limits of such assays
# REPORTED CONDITIONS: source organism: Vibrio cholerae
OBSERVED PROPERTY: Kd

Find the measured Kd of AYYWNQNGF with HLA-B*44:02 as test system.
≥ 20 µM
